This section presents sequences with their documented PBM binding z-score values.
Tested on: PXR homodimer (NR concentration 270 nM)
Experiment: PBM binding z-score (relative to random genomic background probes); higher = stronger binding; sequences stand for … in GC…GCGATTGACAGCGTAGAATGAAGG

sequence record	PBM binding z-score
GATACAGGGTCCAGGCCAGAGTACGCGTATTGAT	-0.03
CCTTACGGGTCACAGACAGGTTATAGCATTTGGA	0.387
TAGCCTAGGTCAGATCGGGACAGTATACGCTATA	-0.545
TCTCGGAGGACACGAAAGCTCAGAGCTCGACATC	-0.855
CCTATTAGTTGACCATAAGGCCAACCGAAGCTCG	1.1
TCATACAGGTAAACAGGTGAAAGTCCGTAAGTTA	0.792
ATATGCAGGTTACATCCGGGTCATTCAGGCTATG	1.94
